# IC80 (µg/ml) with constrains per entry
target: HIV Env, isolate 1012_11_TC21_3257 (HIV); assay: cell-based or functional assay
Property: IC80 (µg/ml) with constrains (µg/mL)

{"Binder": "ePGDM5 (antibody, V domains shown) VH: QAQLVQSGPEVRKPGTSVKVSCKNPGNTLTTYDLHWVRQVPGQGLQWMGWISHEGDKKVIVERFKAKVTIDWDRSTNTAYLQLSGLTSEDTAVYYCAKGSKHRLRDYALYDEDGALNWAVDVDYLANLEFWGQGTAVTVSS VL: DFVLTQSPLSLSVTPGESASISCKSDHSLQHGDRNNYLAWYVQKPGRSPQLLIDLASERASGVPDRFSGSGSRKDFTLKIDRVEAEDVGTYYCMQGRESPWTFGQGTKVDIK", "Property": "IC80 (µg/ml) with constrains", "Numeric Result": 0.305}
{"Binder": "ePGDM9 (antibody, V domains shown) VH: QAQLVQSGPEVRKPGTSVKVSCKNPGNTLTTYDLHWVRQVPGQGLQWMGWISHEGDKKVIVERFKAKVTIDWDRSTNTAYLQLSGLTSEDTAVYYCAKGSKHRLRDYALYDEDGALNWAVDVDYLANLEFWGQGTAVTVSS VL: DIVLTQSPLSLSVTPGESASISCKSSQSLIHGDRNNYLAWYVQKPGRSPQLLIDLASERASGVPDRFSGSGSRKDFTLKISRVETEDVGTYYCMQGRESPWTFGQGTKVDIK", "Property": "IC80 (µg/ml) with constrains", "Numeric Result": 0.167}
{"Binder": "ePGDM13 (antibody, V domains shown) VH: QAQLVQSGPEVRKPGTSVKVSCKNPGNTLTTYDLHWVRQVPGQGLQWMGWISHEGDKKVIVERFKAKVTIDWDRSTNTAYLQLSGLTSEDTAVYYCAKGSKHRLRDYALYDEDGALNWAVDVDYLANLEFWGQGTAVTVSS VL: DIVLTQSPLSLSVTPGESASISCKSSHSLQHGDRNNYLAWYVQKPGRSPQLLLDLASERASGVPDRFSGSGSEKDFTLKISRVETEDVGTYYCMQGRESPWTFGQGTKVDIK", "Property": "IC80 (µg/ml) with constrains", "Numeric Result": 0.26}
{"Binder": "PGDM1400 (antibody, V domains shown) VH: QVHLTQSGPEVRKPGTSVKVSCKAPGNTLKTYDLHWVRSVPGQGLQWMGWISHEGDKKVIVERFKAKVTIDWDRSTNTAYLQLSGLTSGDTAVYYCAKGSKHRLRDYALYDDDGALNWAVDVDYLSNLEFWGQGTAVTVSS VL: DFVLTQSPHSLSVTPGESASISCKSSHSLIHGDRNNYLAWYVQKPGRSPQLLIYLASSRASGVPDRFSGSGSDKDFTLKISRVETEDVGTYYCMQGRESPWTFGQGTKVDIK", "Property": "IC80 (µg/ml) with constrains", "Numeric Result": 0.303}
